Data provenance: patent US20140274782A1

tested on: 3×MBT domain of L3MBTL1; assay: Triple SILAC pull-down, 3xMBT/3xMBTD355N ratio (cytoplasmic, nuclear and chromatin fractions of 293T cells); format: binding, human; conditions: SILAC ratio 3xMBT vs 3xMBTD355N pull-down, 293T cells; experiment with UNC0638 in heavy SILAC media; all values in log base 2;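 further: proteins quantified with MaxQuant, requiring at least two unique peptides and quantification in both label directions, normalized to the mean of proteins from a digested loading control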
OBSERVED PROPERTY: 3xMBT/D355N UNC Heavy (log base 2)

>>> numeric_value("NOSIP (protein, UniProt Q9Y314 1-301, looked up) Nitric oxide …: MTRHGKNCTAGAVYTYHEKKKDTAASGYGTQNIRLSRDAVKDFDCCCLSLQPCHDPVVTPDGYLYEREAILEYILHQKKEIARQMKAYEKQRGTRREEQKELQRAASQDHVRGFLEKESAIVSRPLNPFTAKALSGTSPDDVQPGPSVGPPSKDKDKVLPSFWIPSLTPEAKATKLEKPSRTVTCPMSGKPLRMSDLTPVHFTPLDSSVDRVGLITRSERYVCAVTRDSLSNATPCAVLRPSGAVVTLECVEKLIRKDMVDPVTGDKLTDRDIIVLQRGGTGFAGSGVKLQAEKSRPVMQA")
1.54
>>> numeric_value("EEF1B2 (protein, UniProt P24534 2-225, looked up) Elongation factor 1-beta: GFGDLKSPAGLQVLNDYLADKSYIEGYVPSQADVAVFEAVSSPPPADLCHALRWYNHIKSYEKEKASLPGVKKALGKYGPADVEDTTGSGATDSKDDDDIDLFGSDDEEESEEAKRLREERLAQYESKKAKKPALVAKSSILLDVKPWDDETDMAKLEECVRSIQADGLVWGSSKLVPVGYGIKKLQIQCVVEDDKVGTDMLEEQITAFEDYVQSMDVAAFNKI")
"−0.81"
>>> numeric_value("NPM3 (protein, UniProt O75607 2-178, looked up) Nucleoplasmin-3: AAGTAAALAFLSQESRTRAGGVGGLRVPAPVTMDSFFFGCELSGHTRSFTFKVEEEDDAEHVLALTMLCLTEGAKDECNVVEVVARNHDHQEIAVPVANLKLSCQPMLSLDDFQLQPPVTFRLKSGSGPVRITGRHQIVTMSNDVSEEESEEEEEDSDEEEVELCPILPAKKQGGRP")
2.70
>>> numeric_value("HPRT1 (protein, UniProt P00492 2-218, looked up) Hypoxanthine-guanine …: ATRSPGVVISDDEPGYDLDLFCIPNHYAEDLERVFIPHGLIMDRTERLARDVMKEMGGHHIVALCVLKGGYKFFADLLDYIKALNRNSDRSIPMTVDFIRLKSYCNDQSTGDIKVIGGDDLSTLTGKNVLIVEDIIDTGKTMQTLLSLVRQYNPKMVKVASLLVKRTPRSVGYKPDFVGFEIPDKFVVGYALDYNEYFRDLNHVCVISETGKAKYKA")
2.51
